Biological target: AHR (Homo sapiens, UniProt P35869)
Construct: other cell line with a DRE-luciferase reporter stably transfected; endogenous in cells
Assay: DRE-Luciferase Reporter Assay (HepG2 AhR-Lucia reporter cells)
Details: AHR activating ligand at its EC50, luciferase read-out, read-out: HEPG2 Luc IC50
Field: IC50. Provide a value for each of the compounds that follow.

Specify IC50 for Cn1ncnc1C(=O)Nc1nc2ccc(-c3ccccc3C(F)F)nc2s1 and stop.
> 0.5 µM

Return IC50 (reported value) for this compound: Cc1ccccc1-c1ccc2nc(NC(=O)c3cccnc3)sc2n1
> 0.5 µM

Recall and state the measured IC50 for Cn1nccc1C(=O)Nc1nc2ccc(-c3ccccc3C(F)F)nc2s1 .
0.1 to 0.5 µM

Supply IC50 value. Item: Cn1nccc1C(=O)Nc1nc2ccc(-c3ccccn3)nc2s1
0.1 to 0.5 µM

State its IC50: Cn1nccc1C(=O)Nc1nc2ccc(-c3ccccc3N3CCCC3)nc2s1
> 0.5 µM

====

Assay: Solubility Determination Assay (PBS pH 1.6 and pH 7.4)
Assay type: physicochemical
Details: PBS buffer, aqueous buffer, kinetic from dmso stock; PBS pH 1.6, 25° C., 2 hours shaking; read-out: Aq. Solubility at pH = 1.6
ENDPOINT: solubility at 2 h

Give recorded solubility at 2 h. Cc1ccccc1-c1ccc2nc(NC(=O)c3ccccn3)sc2n1
0.1 to 1 µM

Give recorded solubility at 2 h. Cc1ccccc1-c1cc2ncc(NC(=O)c3ccnn3C)cc2[nH]1
≥ 1 µM

Please give measured solubility at 2 h of the following entry: Cn1ncnc1C(=O)Nc1cnc2cc(-c3cc(F)ccc3C(F)F)[nH]c2c1
≥ 1 µM

====

I'd be grateful if you could share measured IC50 for these entries.
Target: AHR (Homo sapiens, UniProt P35869)
Construct: other cell line with a DRE-luciferase reporter stably transfected; endogenous in cells
Sequence (P35869 11-848): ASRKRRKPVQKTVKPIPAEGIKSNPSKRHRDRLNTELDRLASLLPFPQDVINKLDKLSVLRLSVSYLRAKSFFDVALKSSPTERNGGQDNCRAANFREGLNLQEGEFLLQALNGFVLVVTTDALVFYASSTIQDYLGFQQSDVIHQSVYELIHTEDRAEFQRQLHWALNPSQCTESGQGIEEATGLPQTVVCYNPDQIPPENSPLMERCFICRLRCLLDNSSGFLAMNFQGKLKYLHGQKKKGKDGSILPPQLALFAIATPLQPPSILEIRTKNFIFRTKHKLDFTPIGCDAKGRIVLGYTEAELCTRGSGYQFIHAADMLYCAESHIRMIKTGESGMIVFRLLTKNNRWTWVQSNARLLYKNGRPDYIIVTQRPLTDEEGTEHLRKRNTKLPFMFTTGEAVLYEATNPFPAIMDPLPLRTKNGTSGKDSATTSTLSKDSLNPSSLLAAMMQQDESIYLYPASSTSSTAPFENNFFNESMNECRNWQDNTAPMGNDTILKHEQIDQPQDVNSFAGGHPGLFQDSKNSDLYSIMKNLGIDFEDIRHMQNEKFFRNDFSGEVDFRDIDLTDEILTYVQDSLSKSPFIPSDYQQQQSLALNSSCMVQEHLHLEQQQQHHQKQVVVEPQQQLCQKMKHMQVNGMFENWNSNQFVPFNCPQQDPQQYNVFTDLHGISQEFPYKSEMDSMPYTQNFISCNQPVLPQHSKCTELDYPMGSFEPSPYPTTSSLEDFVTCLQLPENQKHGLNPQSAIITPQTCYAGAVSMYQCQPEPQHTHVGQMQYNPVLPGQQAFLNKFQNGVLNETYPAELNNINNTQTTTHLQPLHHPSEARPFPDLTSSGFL
Test: DRE-Luciferase Reporter Assay (HepG2 AhR-Lucia reporter cells)
Settings: AHR activating ligand at its EC50, luciferase read-out, read-out: HEPG2 Luc IC50

Return value of IC50 for input Cn1ncnc1C(=O)Nc1cnc2cc(-c3ccccc3C(F)(F)F)[nH]c2c1 [Product 45] , no commentary.
< 100 nM

Identify measured IC50 associated with Cc1ccccc1-c1ccc2nc(NC(=O)c3ccncc3)sc2n1 [Product 10]
> 500 nM

Indicate the recorded IC50 value for this compound: COc1ccccc1-c1ccc2nc(NC(=O)c3cccnc3)sc2n1 [Product 13]
100 to 500 nM

Give a short answer stating reported IC50 for Cn1nccc1C(=O)Nc1nc2ccc(-c3ccccc3C(F)(F)F)nc2s1 [Product 1] .
> 500 nM

Give the value of IC50 reported for the following: CC(C)C(=O)Nc1ccccc1-c1ccc2nc(NC(=O)c3ccnn3C)sc2n1 [Product 34]
> 500 nM

Given the compound Cc1ccccc1-c1cc2cnc(NC(=O)c3ccnn3C)nc2[nH]1 [Product 48] , write its reported IC50.
100 to 500 nM

====

Would you mind telling me the reported CLint scaled at 1 µM of each entry?
Experiment: Hepatocyte Stability Assay, mouse hepatocytes
Format: in vitro ADME
Settings: cryopreserved mouse hepatocytes, read-out: Mouse hepatocyte clearance
Description: Example 32: Hepatocyte Stability Assay Preparation of working solutions: 10 mM stock solutions of test compound and positive control were prepared in DMSO. […] Preparation of Hepatocytes: Incubation medium (William's E Medium supplemented with GlutaMAX) and hepatocyte thawing medium were placed in a 37° C. water bath and allowed warming for at least 15 minutes prior to use. […] Using an AO/PI Staining, cells were counted and the viable cell density was determined. […]

Hello, please tell me recorded CLint scaled at 1 µM for this one: Cc1ccccc1-c1ccc2nc(NC(=O)c3ccccn3)sc2n1
> 50 mL/min/kg

For COc1ccccc1-c1ccc2nc(NC(=O)c3ccnn3C)sc2n1 , write its CLint scaled at 1 µM.
> 50 mL/min/kg

====

Molecular target: AHR (Homo sapiens)
Construct: other cell line with a DRE-luciferase reporter stably transfected; endogenous in cells; host or cells: Human HepG2 liver carcinoma AhR-Lucia reporter cells
Test: DRE-Luciferase Reporter Assay (HepG2 AhR-Lucia reporter cells)
Assay type: cell-based
Conditions: AHR activating ligand at its EC50, luciferase read-out, read-out: HEPG2 Luc IC50
ENDPOINT: IC50

Return value of IC50 for input COc1cccc(-c2ccc3nc(NC(=O)c4ccnn4C)sc3n2)c1 , no commentary.
100 to 500 nM

Return reported IC50. Input compound: Cc1ccccc1-c1ccc2nc(NC(=O)c3ccnn3C)oc2n1
> 500 nM

Please indicate IC50 recorded for COc1ccccc1-c1ccc2nc(NC(=O)c3ccccn3)sc2n1
< 100 nM

Give recorded IC50. Cn1nccc1C(=O)Nc1nc2ccc(-c3cc(F)ccc3C(F)F)nc2s1
> 500 nM

Note down IC50 recorded for Cc1ccccc1-c1cc2ncc(NC(=O)c3ccnn3C)nc2[nH]1
> 500 nM

Specify reported IC50 for the compound shown: COc1ccccc1-c1ccc2nc(NC(=O)c3ccncc3)sc2n1
< 100 nM

Specify IC50 for CN(CCO)c1ccccc1-c1ccc2nc(NC(=O)c3ccnn3C)sc2n1 and stop.
100 to 500 nM

Determine from records and report IC50 for Cc1cnc(-c2ccc3nc(NC(=O)c4ccnn4C)sc3n2)s1
100 to 500 nM

Kindly indicate its recorded IC50. Item: Cn1nccc1C(=O)Nc1nc2ccc(-c3cccnc3)nc2s1
100 to 500 nM

Supply IC50 value. Item: Cc1csc(-c2ccc3nc(NC(=O)c4ccnn4C)sc3n2)n1
> 500 nM

Report measured IC50; entry is Cn1nccc1C(=O)Nc1nc2ccc(-c3nccs3)nc2s1
> 500 nM

Entry Cc1ccccc1-c1ccc2nc(NC(=O)N3CCN(C)CC3)sc2n1 needs its IC50 filled in; supply it.
> 500 nM

In one line, give reported IC50 of the entry CN(C)C(=O)c1cccc(-c2ccc3nc(NC(=O)c4ccnn4C)sc3n2)c1 .
> 500 nM

Read off the recorded IC50 for Cn1ncnc1C(=O)Nc1cnc2cc(-c3cc(F)ccc3C(F)F)[nH]c2c1
< 100 nM

Answer with the recorded IC50 of CC(=O)Nc1nc2ccc(-c3ccccc3N(C)C)nc2s1 only.
> 500 nM

Consider the compound CN(C)c1ccccc1-c1ccc2nc(NC(=O)c3ccnn3C)sc2n1 . State its measured IC50.
< 100 nM

Please report the measured IC50 for Cc1ccccc1-c1ccc2nc(NC(=O)N3CCOCC3)sc2n1
< 100 nM

Give the reported IC50 for this compound. Cc1ccccc1-c1ccc2nc(NC(=O)c3ncnn3C)sc2n1
100 to 500 nM

Return the recorded IC50 value; entry: Cc1ccccc1-c1ccc2nc(NC(=O)c3ccccn3)sc2n1
< 100 nM

For the compound Cc1nc(C)c(-c2ccc3nc(NC(=O)c4ccnn4C)sc3n2)s1 , give its reported IC50.
100 to 500 nM

Item Cc1ncsc1-c1ccc2nc(NC(=O)c3ccnn3C)sc2n1 : provide IC50
100 to 500 nM

Look up and state reported IC50 for Cc1ccccc1-c1cc2sc(NC(=O)c3ccnn3C)nc2cn1
> 500 nM

Answer with the recorded IC50 for the compound listed here: CN(C)c1cccc(-c2ccc3nc(NC(=O)c4ccnn4C)sc3n2)c1
> 500 nM

Give a short answer stating reported IC50 for CC(=O)N(C)c1ccccc1-c1ccc2nc(NC(=O)c3ccnn3C)sc2n1 .
> 500 nM

Provide IC50 value for the following compound: Cn1ncnc1C(=O)Nc1nc2ccc(-c3ccccc3C(F)(F)F)nc2s1
> 500 nM

Let me know recorded IC50 for CC(=O)Nc1ccccc1-c1ccc2nc(NC(=O)c3ccnn3C)sc2n1 , thanks.
> 500 nM

Give the reported value of IC50 for this record: CN(C)c1ccc(-c2ccc3nc(NC(=O)c4ccnn4C)sc3n2)cc1
< 100 nM

Identify the reported IC50 for the following entry. Cn1nccc1C(=O)Nc1cnc2cc(-c3ccccc3C(F)(F)F)[nH]c2c1
100 to 500 nM

Read off the recorded IC50 for COc1ccccc1-c1ccc2nc(NC(=O)c3ccnn3C)sc2n1
< 100 nM

For Cn1nccc1C(=O)Nc1nc2ccc(-c3ccccc3O)nc2s1 , write its IC50.
> 500 nM

Consider the compound Cc1ccccc1-c1cc2ncc(NC(=O)c3ncnn3C)cc2[nH]1 . State its measured IC50.
100 to 500 nM

Specify reported IC50 for the compound shown: Cc1nc(-c2ccc3nc(NC(=O)c4ccnn4C)sc3n2)sc1C
100 to 500 nM

Given the compound Cn1cc(-c2ccc3nc(NC(=O)c4ccnn4C)sc3n2)cn1 , write its reported IC50.
100 to 500 nM

Fill in reported IC50 for this entry: Cn1ncnc1C(=O)Nc1nc2ccc(-c3cc(F)ccc3C(F)F)nc2s1
> 500 nM

Quote IC50 reported for Cc1ccccc1-c1cc2ncc(NC(=O)c3ccnn3C)cc2[nH]1 please.
100 to 500 nM

Using the record for Cc1ccccc1-c1ccc2nc(NC(=O)c3ccnn3C)sc2n1 , state its measured IC50.
< 100 nM

Please list IC50 recorded for the compound COc1ccccc1-c1ccc2nc(NC(=O)c3ncnn3C)sc2n1
100 to 500 nM

Provide only the value of recorded IC50 for Cc1ccccc1-c1ccc2sc(NC(=O)c3ccnn3C)nc2n1
> 500 nM
